TESTED_ON: Pim1 kinase (Homo sapiens (Human))
CONDITION_SET: read-out: Pim1 IC50
satisfied if IC50 is below 2 nM. not satisfied if not; exact matches included in not satisfied.

Here are 3 compounds together with their reported answers.
CCCOc1ccc(F)c(-c2nc(C(=O)Nc3cnccc3[C@@H]3CC[C@H](O)[C@H](N)C3)c(N)cc2F)c1 [Example 67] : satisfied
N[C@H]1CCC[C@@H](c2ccncc2NC(=O)c2ccc(F)c(-c3cc(F)cc(F)c3F)n2)C1 [Example 14] : not satisfied
N[C@H]1CCC[C@@H](c2ccncc2NC(=O)c2ccc(F)c(-c3ccc(O)cc3F)n2)C1 [Example 9] : satisfied

Pending compound:
// query I'd appreciate it if you could check whether C[C@@H]1C[C@H](N)C[C@H](c2ccncc2NC(=O)c2nc(-c3cc(O)ccc3F)ccc2F)C1 [Example 43] has IC50 smaller than 2 nM.
// result satisfied

----------
Examples of molecules with documented IC50 follow.
TESTED_ON: Pim1 kinase (Homo sapiens (Human), UniProt P11309)
Sequence (P11309 whole entry): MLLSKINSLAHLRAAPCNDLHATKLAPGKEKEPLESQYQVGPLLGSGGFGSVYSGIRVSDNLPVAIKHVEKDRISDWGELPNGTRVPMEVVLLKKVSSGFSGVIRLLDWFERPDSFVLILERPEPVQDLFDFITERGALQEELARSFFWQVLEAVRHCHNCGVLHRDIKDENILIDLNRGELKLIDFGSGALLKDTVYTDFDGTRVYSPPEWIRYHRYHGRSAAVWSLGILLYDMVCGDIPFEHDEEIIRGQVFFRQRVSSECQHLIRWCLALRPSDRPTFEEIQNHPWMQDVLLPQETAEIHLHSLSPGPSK
CONDITION_SET: read-out: Pim1 IC50
Please state the figure in nM; there is no need to write the unit.

C[C@H]1C[C@@H](c2ccncc2NC(=O)c2nc(-c3c(F)cccc3F)c(F)cc2N)C[C@@H](N)[C@H]1O (stereo in doubt) : 1
CCc1ccc(F)c(-c2cccc(C(=O)Nc3cnccc3[C@H]3C[C@@H](N)[C@H](O)[C@@H](C)C3)n2)c1F : 3

// query I am curious: what IC50 value has been reported for `C[C@H]1CN(c2ccncc2NC(=O)c2cccc(-c3c(F)cccc3F)n2)C[C@@H](N)[C@@H]1O` ?
// result 1

// query I am curious: what IC50 value has been reported for Nc1cc(F)c(-c2c(F)cccc2F)nc1C(=O)Nc1cnccc1[C@@H]1CC[C@H](O)[C@H](N)C1 [Example 65] ?
// result 1

----------
TESTED_ON: Pim3 kinase (Homo sapiens (Human), UniProt Q86V86)
ENDPOINT: IC50 (nM)
Please state the figure in nM; there is no need to write the unit.

Below are worked cases with known answers.
C[C@@H]1C[C@H](N)C[C@H](c2ccncc2NC(=O)c2cccc(-c3ccccc3F)n2)C1 : 3
C[C@H]1CN(c2ccncc2NC(=O)c2cccc(-c3c(F)cccc3F)n2)C[C@@H](O)[C@@H]1O : 1
C[C@H]1C[C@@H](c2ccncc2NC(=O)c2nc(-c3c(F)cccc3F)c(F)cc2N)C[C@@H](O)[C@@H]1O : 2
Cc1ccc(F)c(-c2nc(C(=O)Nc3cnccc3[C@H]3C[C@@H](N)CC(C)(C)C3)ccc2F)c1F : 4

# evaluate next
// query I am curious: what IC50 value has been reported for `N[C@H]1CCC[C@@H](c2ccncc2NC(=O)c2ccc(F)c(-c3c(F)cc(O)cc3F)n2)C1` ?
// result 3

----------
TESTED_ON: Pim1 kinase (Homo sapiens (Human), UniProt P11309)
RUN_DESCRIPTION: biochemical
ENDPOINT: IC50
Please answer in the form of a number followed by its unit of measurement.

// query Give the reported IC50 for Nc1ccc(-c2c(F)cccc2F)nc1C(=O)Nc1cnccc1[C@@H]1CC[C@H](O)[C@H](N)C1 (stereo in doubt) (system: Pim1 kinase (Homo sapiens (Human), UniProt P11309)).
// result 1 nM
